The reported measurements were obtained from paper PMC10788937.

- Protocol description: in vitro
- Conditions: human, microsomes
Measured property: half-life at 1 h, 0.2 μM (min)
Only the number, expressed in min, is required.

[2H]C([2H])([2H])c1sc2c(c1C)C(c1ccc(Cl)cc1)=N[C@@H](CC(=O)OC(C)(C)C)c1nnc(C)n1-2 [(+)-JQ1-D]	22.5
Cc1c(CF)sc2c1C(c1ccc(Cl)cc1)=N[C@@H](CC(=O)OC(C)(C)C)c1nnc(C)n1-2 [(+)-JQ1-F1]	52
Cc1sc2c(c1C)C(c1ccc(Cl)cc1)=N[C@@H](CC(=O)OC(C)(C)C)c1nnc(C)n1-2 [(+)-JQ1, reference compound]	49

Could you tell me which half-life at 1 h, 0.2 μM is on file for Cc1c(C(F)F)sc2c1C(c1ccc(Cl)cc1)=N[C@@H](CC(=O)OC(C)(C)C)c1nnc(C)n1-2 [(+)-JQ1-F2] ?
125

----------
Below, each of the molecules is paired with its reported half-life at 24 h value.
- Protocol description: Pharmacokinetic studies in mice (1:1 mixture, intraperitoneal)
- Format: in vivo, mice (C57BL/6NJ)
- Conditions: C57BL/6NJ, mouse, plasma, ip; male mice, 50 mg/kg 1:1 mixture, intraperitoneal
// return numeric value only (unit: h, not printed)

Cc1sc2c(c1C)C(c1ccc(Cl)cc1)=N[C@@H](CC(=O)OC(C)(C)C)c1nnc(C)n1-2 [(+)-JQ1, reference compound]	3.36

Form field: reported half-life at 24 h of [2H]C([2H])([2H])c1sc2c(c1C)C(c1ccc(Cl)cc1)=N[C@@H](CC(=O)OC(C)(C)C)c1nnc(C)n1-2 [(+)-JQ1-D]
3.01

----------
Reported half-life at 24 h values for the following compounds.
- Protocol description: Pharmacokinetic studies in mice (1:1 mixture, intraperitoneal)
- Assay type: in vivo, mice (C57BL/6NJ)
- Conditions: C57BL/6NJ, mouse, plasma, ip; female mice, 50 mg/kg 1:1 mixture, intraperitoneal
Return type: number; implicit unit h.

Cc1sc2c(c1C)C(c1ccc(Cl)cc1)=N[C@@H](CC(=O)OC(C)(C)C)c1nnc(C)n1-2 [(+)-JQ1, reference compound]	1.93

Here's the next entry for you.
Return reported half-life at 24 h; argument: [2H]C([2H])([2H])c1sc2c(c1C)C(c1ccc(Cl)cc1)=N[C@@H](CC(=O)OC(C)(C)C)c1nnc(C)n1-2 [(+)-JQ1-D]
2.46

----------
- Protocol description: in vitro
- Conditions: mouse, microsomes
Measured property: half-life at 1 h, 0.2 μM

Cc1sc2c(c1C)C(c1ccc(Cl)cc1)=N[C@@H](CC(=O)OC(C)(C)C)c1nnc(C)n1-2 [(+)-JQ1, reference compound]	11 min

What does the record list as half-life at 1 h, 0.2 μM for [2H]C([2H])([2H])c1sc2c(c1C)C(c1ccc(Cl)cc1)=N[C@@H](CC(=O)OC(C)(C)C)c1nnc(C)n1-2 [(+)-JQ1-D] ?
19.8 min

----------
AUC(0-t): recorded values
- Protocol description: Pharmacokinetic studies in mice (1:1 mixture, intraperitoneal)
- Assay type: in vivo, mice (C57BL/6NJ)
- Conditions: C57BL/6NJ, mouse, plasma, ip; female mice, 50 mg/kg 1:1 mixture, intraperitoneal
Output spec: scalar in ng·h/mL, unitless text.

Fill in: AUC(0-t) of [2H]C([2H])([2H])c1sc2c(c1C)C(c1ccc(Cl)cc1)=N[C@@H](CC(=O)OC(C)(C)C)c1nnc(C)n1-2 [(+)-JQ1-D] is ___
50500

What do you get for Cc1sc2c(c1C)C(c1ccc(Cl)cc1)=N[C@@H](CC(=O)OC(C)(C)C)c1nnc(C)n1-2 [(+)-JQ1, reference compound] ?
41100

----------
- Protocol description: Pharmacokinetic studies in mice (1:1 mixture, intraperitoneal)
- Assay type: in vivo, mice (C57BL/6NJ)
- Conditions: C57BL/6NJ, mouse, plasma, ip; male mice, 50 mg/kg 1:1 mixture, intraperitoneal
Measured property: CL/F (mL/min/kg)
Quick note: give the figure in mL/min/kg, leave out the unit.

[2H]C([2H])([2H])c1sc2c(c1C)C(c1ccc(Cl)cc1)=N[C@@H](CC(=O)OC(C)(C)C)c1nnc(C)n1-2 [(+)-JQ1-D]	8.8

Kindly review the next compound as well.
Given the entry Cc1sc2c(c1C)C(c1ccc(Cl)cc1)=N[C@@H](CC(=O)OC(C)(C)C)c1nnc(C)n1-2 [(+)-JQ1, reference compound] , report its measured CL/F.
11

----------
- Protocol description: Pharmacokinetic studies in mice (1:1 mixture, intraperitoneal)
- Type: in vivo, mice (C57BL/6NJ)
- Conditions: C57BL/6NJ, mouse, plasma, ip; male mice, 50 mg/kg 1:1 mixture, intraperitoneal
Measured property: AUC(0-t) (ng·h/mL)
Give the number; ng·h/mL is assumed, so skip it.

[2H]C([2H])([2H])c1sc2c(c1C)C(c1ccc(Cl)cc1)=N[C@@H](CC(=O)OC(C)(C)C)c1nnc(C)n1-2 [(+)-JQ1-D]	94200

Looking for the measured AUC(0-t) of Cc1sc2c(c1C)C(c1ccc(Cl)cc1)=N[C@@H](CC(=O)OC(C)(C)C)c1nnc(C)n1-2 [(+)-JQ1, reference compound] , can you help?
75100
